Entry source: patent US20250257075A1

Target: KRAS G12C-BRAF complex (Homo sapiens, UniProt P01116+P62937, G12C)
Construct: expressed in transfected cells
Sequence (P01116 1-188 isoform P01116-2 G12C): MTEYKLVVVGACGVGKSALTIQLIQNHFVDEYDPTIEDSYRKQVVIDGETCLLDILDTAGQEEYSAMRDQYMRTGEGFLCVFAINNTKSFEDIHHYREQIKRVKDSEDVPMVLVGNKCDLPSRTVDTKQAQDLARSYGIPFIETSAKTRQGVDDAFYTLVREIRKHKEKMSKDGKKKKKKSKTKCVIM
Sequence (P62937 whole entry): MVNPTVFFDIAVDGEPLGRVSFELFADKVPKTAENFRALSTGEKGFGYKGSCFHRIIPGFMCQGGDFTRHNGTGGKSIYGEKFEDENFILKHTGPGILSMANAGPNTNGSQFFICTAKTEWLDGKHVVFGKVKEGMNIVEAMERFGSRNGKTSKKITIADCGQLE
Test: KRAS-BRAF with CYPA (500 nM) interaction assay (TR-FRET), G12C
Assay type: biochemical
Conditions: 3 hours
Each record is given 1.0 if its reported IC50 is strictly below 0.07 µM. Records at or above 0.07 µM are given 0.0.

Reference set (3 entries):
CCn1c(-c2cc(N3CCN(CC(F)(F)F)CC3)cnc2[C@H](C)OC)c2c3cc(c(F)cc31)-c1csc(n1)C[C@H](NC(=O)[C@H](C(C)C)N(C)C(=O)[C@H]1C[C@@H](C#CC(F)(F)F)C1)C(=O)N1CCC[C@H](N1)C(=O)OCC(C)(C)C2 (atropisomer, axis not shown; (M)) [Example 8]; 0.0
CO[C@@H](C)c1ncc(N2CCN(C)CC2)cc1-c1c2c3cc(c(F)cc3n1CC(F)(F)F)-c1csc(n1)C[C@H](NC(=O)[C@H](C(C)C)N(C)C(=O)[C@H]1CC[C@@H](C#CC(F)(F)F)CC1)C(=O)N1CCC[C@H](N1)C(=O)OCC(C)(C)C2 (atropisomer, axis not shown; (M)) [Example 10]; 0.0
CO[C@@H](C)c1ncc(N2CCN(C)CC2)cc1-c1c2c3cc(c(F)cc3n1CC(F)(F)F)-c1csc(n1)C[C@H](NC(=O)[C@H](C(C)C)N(C)C(=O)c1ccc(C#CC(F)(F)F)cc1)C(=O)N1CCC[C@H](N1)C(=O)OCC(C)(C)C2 (atropisomer, axis not shown; (M)) [Example 4]; 0.0

## Task IC50 strictly < 0.07 µM for this molecule? CO[C@@H](C)c1ncc(N2CCN(C)CC2)cc1-c1c2c3cc(c(F)cc3n1CC(F)(F)F)-c1csc(n1)C[C@H](NC(=O)[C@H](C(C)C)N(C)C(=O)[C@H]1C[C@@H](C#Cc3ncccn3)C1)C(=O)N1CCC[C@H](N1)C(=O)OCC(C)(C)C2 (relative stereo) [Example 5]
## Result 0.0

## Task IC50 strictly < 0.07 µM for this molecule? CO[C@@H](C)c1ncc(N2CCN(C)CC2)cc1-c1c2c3c(F)c(ccc3n1CC(F)(F)F)-c1csc(n1)C[C@H](NC(=O)[C@H](C(C)C)N(C)C(=O)[C@H]1C[C@@H](C#CC(F)(F)F)C1)C(=O)N1CCC[C@H](N1)C(=O)OCC(C)(C)C2 (atropisomer, axis not shown; (M)) [Example 12]
## Result 1.0

## Task IC50 strictly < 0.07 µM for this molecule? CO[C@@H](C)c1ncc(N2CCN(C)CC2)cc1-c1c2c3cc(c(F)cc3n1CC(F)(F)F)-c1csc(n1)C[C@H](NC(=O)[C@H](C(C)C)N(C)C(=O)[C@H]1C[C@@H](C#Cc3ncc(C(F)(F)F)cn3)C1)C(=O)N1CCC[C@H](N1)C(=O)OCC(C)(C)C2 (atropisomer, axis not shown; (M)) [Example 13]
## Result 1.0

## Task IC50 strictly < 0.07 µM for this molecule? CC#CC(=O)N1CC[C@H](C(=O)N(C)[C@H](C(=O)N[C@H]2Cc3nc(cs3)-c3ccc4c(c3)c(c(-c3cccnc3[C@H](C)OC)n4CC)CC(C)(C)COC(=O)[C@@H]3CCCN(N3)C2=O)C(C)C)C1 [Example A168, reference compound]
## Result 0.0

## Task IC50 strictly < 0.07 µM for this molecule? CO[C@@H](C)c1ncc(N2CCN(C)CC2)cc1-c1c2c3cc(c(F)cc3n1CC(F)(F)F)-c1csc(n1)C[C@H](NC(=O)[C@H](C(C)C)N(C)C(=O)[C@H]1C[C@H](C#CC(F)(F)F)C1)C(=O)N1CCC[C@H](N1)C(=O)OCC(C)(C)C2 (atropisomer, axis not shown; (M)) [Example 1]
## Result 0.0

## Task IC50 strictly < 0.07 µM for this molecule? CO[C@@H](C)c1ncc(N2CCN(C)CC2)cc1-c1c2c3cc(c(F)cc3n1CC(F)(F)F)-c1csc(n1)C[C@H](NC(=O)[C@H](C(C)C)N(C)C(=O)[C@H]1C[C@@H](C#CC(F)(F)F)C1)C(=O)N1CCC[C@H](N1)C(=O)OCC(C)(C)C2 (atropisomer, axis not shown; (M)) [Example 3]
## Result 0.0

## Task IC50 strictly < 0.07 µM for this molecule? CO[C@@H](C)c1ncc(N2CCN(CC(F)(F)F)CC2)cc1-c1c2c3cc(c(F)cc3n1CC(F)(F)F)-c1csc(n1)C[C@H](NC(=O)[C@H](C(C)C)N(C)C(=O)[C@H]1C[C@@H](C#CC(F)(F)F)C1)C(=O)N1CCC[C@H](N1)C(=O)OCC(C)(C)C2 (atropisomer, axis not shown; (M)) [Example 7]
## Result 0.0

## Task IC50 strictly < 0.07 µM for this molecule? CCn1c(-c2cc(N3CCN(C)CC3)cnc2[C@H](C)OC)c2c3cc(c(F)cc31)-c1csc(n1)C[C@H](NC(=O)[C@H](C(C)C)N(C)C(=O)[C@H]1C[C@@H](C#CC(F)(F)F)C1)C(=O)N1CCC[C@H](N1)C(=O)OCC(C)(C)C2 (atropisomer, axis not shown; (M)) [Example 6]
## Result 1.0

## Task IC50 strictly < 0.07 µM for this molecule? CCn1c(-c2cc(N3CCOCC3)cnc2[C@H](C)OC)c2c3cc(c(F)cc31)-c1csc(n1)C[C@H](NC(=O)[C@H](C(C)C)N(C)C(=O)[C@H]1C[C@@H](C#CC(F)(F)F)C1)C(=O)N1CCC[C@H](N1)C(=O)OCC(C)(C)C2 (atropisomer, axis not shown; (M)) [Example 11]
## Result 1.0

## Task IC50 strictly < 0.07 µM for this molecule? CO[C@@H](C)c1ncc(N2CCN(C)CC2)cc1-c1c2c3cc(c(F)cc3n1CC(F)(F)F)-c1csc(n1)C[C@H](NC(=O)[C@H](C(C)C)N(C)C(=O)[C@H]1CC[C@H](C#CC(F)(F)F)CC1)C(=O)N1CCC[C@H](N1)C(=O)OCC(C)(C)C2 (atropisomer, axis not shown; (M)) [Example 9]
## Result 0.0
